Test system: UACC-257 melanoma
experimental-details: NCI-60 one-dose screen, 48 h (100 = growth as untreated, 0 = no growth, -100 = all killed)
particulars: 10 µM
About 83,000 compounds went through this panel and 20% of them were active in at least one assay; those are over-represented in the sample as a whole.
endpoint-label: growth (%)
# output: bare number, implied unit %

The measured growth associated with `Nc1c(C(=O)Nc2cccc(F)c2)sc2nc3c(cc12)C(=O)CCC3` reads 57.3

Recorded result, CCC1(C(C)C)NC(=O)NC1=O (stereo unspecified) , growth: 92.4

growth recorded for this molecule, COc1cccc(NC(=O)c2sc3nc4c(cc3c2N)C(O)CCC4)c1 (stereo unspecified) , is 55

// sample COc1ccc(N2C(=O)C3c4[nH]c5ccc(OCc6ccccc6)cc5c4C4CCC(C(C)C)CC4C3C2=O)cc1 (stereo unspecified) , its growth was 96.1

Record summary for `COc1ccc(-c2csc(NC(=O)CSc3nc(C)c(-c4ccccc4)n3Nc3ccccc3)n2)cc1` : reported growth = 89.3

***
# molecule `O=c1oc2cc(OS(=O)(=O)c3ccccc3)ccc2c2c1CCCCC2` ; its growth = 50.8

Reported growth ( `Cc1ccc(Nc2nnc(-c3cc(-c4ccncc4)n(-c4ccccc4)n3)s2)cc1` ) = 110

---

Entries annotated with measured growth
Tested on: HT29 colon
experimental-details: NCI-60 one-dose screen, 48 h (100 = growth as untreated, 0 = no growth, -100 = all killed)
particulars: 10 µM
The panel holds about 83,000 compounds, 20% with a hit somewhere; the sample as a whole holds those more often.
// return numeric value only (unit: %, not printed)

compound `COc1cc(-c2nn3c(/C=C4/C(=O)Nc5ccccc54)c(-c4ccc(C)cc4)nc3s2)cc(OC)c1OC` , growth observed: 25.7

Lab note: COc1cc(/C=C2\CCCC3=C2N=C2SC=NN2C3c2cc(OC)c(OC)c(OC)c2)cc(OC)c1OC (stereo unspecified) gave growth of 3.26

growth reported for this compound `c1ccc2c(c1)oc1c3cccnc3ccc21` : 95.8

GET /value?item= `CCCCCC(=O)c1ccc(OCCCN2CCN(C(=O)OCC)CC2)cc1` &field=growth returns 102

Entry `CSc1cc(SC)ncn1` , growth reported as 97.3

Let's switch to this compound now.
Lookup result for COc1ccc(CN2CCC(N3CCCC3=O)c3cc(Cl)ccc32)cc1 (stereo unspecified) ; measured growth: 88.8

---

System: LOX IMVI melanoma
experimental-details: NCI-60 one-dose screen, 48 h
particulars: 10 µM
Compounds without any hit were thinned out: in the full panel of roughly 83,000, 20% have a hit. Calls of active or inactive are those of the source. Rule for the calls: active = growth percent below 10; inactive = the rest.
Can you answer with just one of these options? active, inactive

Exercise: Called result for `O=C(Nc1ccc(CN2CCc3nc4cc(O)c(O)cc4cc32)cc1)c1ccc(Cl)c(Cl)c1`
Key: inactive

Further cases:
Exercise: How did this test come out for `C#Cc1ccc(-n2c(/C=C/c3ccc4ccccc4c3)nc3ncccc3c2=O)cc1` ?
Key: active

Exercise: Any idea what this test logged for `Cc1cs/c(=N\NC(=O)c2cc(-c3cc4ccccc4o3)nn2-c2ccccc2)n1-c1ccccc1` ?
Key: inactive

Exercise: Record request — test call for `COC(=O)[C@@H]1[C@H](O)[C@H](C)[C@H](O)[C@@](C)(O)/C=C\C=C(C)C(=O)Nc2c(C)c(OC(C)=O)c3c(c2O)C(=O)C(C)=C2OCOC(=C23)C(C)=C[C@@](C)(O)[C@H](O)[C@@H](C)[C@H]1OC(C)=O`
Key: inactive

Exercise: Record request — test call for `CSc1nn(-c2ccccc2)c2ncnc(Oc3ccc(C)cc3)c12`
Key: inactive

Exercise: // outcome(item) with item = `O=C1CC[C@@H]2CCCC[C@@H]2C1`
Key: inactive

Exercise: GET /call?item= `COc1cc(-c2nc(Nc3nc4ccccc4s3)[nH]c(=O)c2C#N)cc(OC)c1O` returns the recorded outcome of this test.
Key: inactive

Exercise: Fill in: this test's call for `COc1ccc(-c2ccc3cc(C(=O)Nc4ccc(O)c(C(=O)/C=C/c5cc(OC)c(OC)c(OC)c5)c4)ccc3c2)cc1` is ___
Key: inactive

Origin of the recorded values: PubChem BioAssay (NCI)
